src = the supplement of paper PMC6757056

B1: library; a variant is named by its letters at N, in order (parent)
chain: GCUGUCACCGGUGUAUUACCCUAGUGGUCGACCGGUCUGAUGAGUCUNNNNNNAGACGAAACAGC

Variants of: B1
Assay: FACS-Seq fitted mean relative fluorescence mCherry/BFP with ligand (log10 relative fluorescence); ligand: hypoxanthine (xanthine aptamer); ligand concentration (+) FACS-Seq: 5 mM; higher = higher reporter protein expression
Settings: HEK293T, ligand present: yes
FACS-Seq fitted mean (log10) overview
Lab note: record the figure alone, no unit after it.

UCUGGC | 0.508
ACUUAG | 0.503

Query: Which FACS-Seq fitted mean (log10) is reported for this variant? `GCGAGG`
Reply: 0.5
